protocolDetails: Half life in Sprague-Dawley rat at 2 umol/kg, iv
Format: ADME, organism-based
details: in vivo
measure: half-life (h)
A number alone suffices; assume h.

Reported half-life for `NC(=O)c1cccc(C[C@H]2C[C@H]3CC[C@@H](C2)N3Cc2ccccc2)c1` : what is it?
1.3

====

Assignment: determine reported Papp A→B for the given compounds.
protocolDetails: Apparent permeability from apical to basolateral side of MDCK cells expressing MDR1
Type: ADME, cell-based, Canis lupus familiaris
details: dog
Note: unit ×10⁻⁶ cm/s is implicit; provide only the numeric part.

Fill blank: measured Papp A→B of the compound `CN(C)C(=O)N[C@H]1CC[C@@H](CCN2[C@@H]3CC[C@H]2C[C@@H](Oc2cccc(C(N)=O)c2)C3)CC1` is ____.
1.9

May I ask what Papp A→B has been recorded for `NC(=O)c1cccc(C[C@H]2C[C@H]3CC[C@@H](C2)N3Cc2ccccc2)c1` ?
14

====

protocolDetails: Intrinsic clearance in human liver microsomes
Type: ADME, Microsome
measure: microsomal CLint

Recorded microsomal CLint for `NC(=O)c1cccc(C[C@H]2C[C@H]3CC[C@@H](C2)N3Cc2ccccc2)c1` , please?
< 4 µL/min/mg

Fill blank: measured microsomal CLint of the compound `CN(C)C(=O)N[C@H]1CC[C@@H](CCN2[C@@H]3CC[C@H]2C[C@@H](Oc2cccc(C(N)=O)c2)C3)CC1` is ____.
< 4 µL/min/mg

The reported numbers originate from ChEMBL document CHEMBL1221377.
